Taken from PubChem BioAssay AID1645860.

inhibition overview
SYSTEM: Ubiquitin carboxyl-terminal hydrolase 30 (Homo sapiens)
EXPERIMENT NOTES: inhibitors of human USP30 deubiquitinase (AID 1645860)
EXPERIMENTAL CONTEXT: purified USP30, Ub-rhodamine cleavage fluorescence; at 25 µM; stronger effect = higher value
Hit rate of the full screen: of about 47,000 compounds, about 2,500 (5.3%) were called active. The sample holds actives, similar compounds and a random draw of the others, so the mix is not that of the screen.
QUANTITY: inhibition

# MOLECULE, SYSTEM, READOUT VALUE
measured = [
    ("COc1ccccc1OCc1nc(C)c(C(C)=O)s1", "Ubiquitin carboxyl-terminal hydrolase 30 (Homo sapiens)", "6.92% (inactive)"),
    ("OCc1ccccc1-c1cnc2sc(NCCc3ccccn3)nn12", "Ubiquitin carboxyl-terminal hydrolase 30 (Homo sapiens)", "16.3% (inactive)"),
    ("O=C(O)/C(=C\\c1ccc(Br)cc1)NC(=O)c1ccco1", "Ubiquitin carboxyl-terminal hydrolase 30 (Homo sapiens)", "-0.242% (inactive)"),
    ("Cc1ccccc1CNC(=O)N1CCC2(CC1)NC(=O)[C@H]1CN(c3ncccn3)C[C@H]12", "Ubiquitin carboxyl-terminal hydrolase 30 (Homo sapiens)", "25.7% (inactive)"),
    ("O=C(Nc1ccc(N2CCN(c3ccccc3)C2=O)nc1)c1ccc2c(c1)OCO2", "Ubiquitin carboxyl-terminal hydrolase 30 (Homo sapiens)", "-9.55% (inactive)"),
    ("CCn1c2ccccc2n2c(S(=O)(=O)Cc3ccccc3)nnc12", "Ubiquitin carboxyl-terminal hydrolase 30 (Homo sapiens)", "5.02% (inactive)"),
    ("O=C1COc2ccccc2N1Cc1noc(-c2ccccc2)n1", "Ubiquitin carboxyl-terminal hydrolase 30 (Homo sapiens)", "11.5% (inactive)"),
    ("CC(C)Cc1cc(C(=O)N2CCOC(c3nccnc3N)C2)n(C)n1 (stereo not given)", "Ubiquitin carboxyl-terminal hydrolase 30 (Homo sapiens)", "10.1% (inactive)"),
    ("CNC(=O)c1cc(-c2ccccc2)c(N2CCOCC2)s1", "Ubiquitin carboxyl-terminal hydrolase 30 (Homo sapiens)", "-0.0877% (inactive)"),
    ("COCCSc1ccc(-c2cccnc2)nn1", "Ubiquitin carboxyl-terminal hydrolase 30 (Homo sapiens)", "1.49% (inactive)"),
    ("CCN1CCN(c2ccc(NC(=O)c3cccc(C)c3)cn2)C1=O", "Ubiquitin carboxyl-terminal hydrolase 30 (Homo sapiens)", "-23.3% (inactive)"),
    ("Nn1c(SCC(=O)Nc2ccccc2F)nnc1-c1n[nH]c2c1CCC2", "Ubiquitin carboxyl-terminal hydrolase 30 (Homo sapiens)", "-0.125% (inactive)"),
    ("O=C(Nc1ccccc1)c1ccc2c(c1)OCCCO2", "Ubiquitin carboxyl-terminal hydrolase 30 (Homo sapiens)", "3.42% (inactive)"),
    ("O=C(CCc1nnc2n(CCc3ccccc3)c(=O)c3ccccc3n12)NCCN1CCCC1", "Ubiquitin carboxyl-terminal hydrolase 30 (Homo sapiens)", "13.2% (inactive)"),
    ("CC(C)(C)c1ccc(Oc2ccc(NC(=O)c3ccc4c(c3)CCO4)cn2)cc1", "Ubiquitin carboxyl-terminal hydrolase 30 (Homo sapiens)", "34.9% (active)"),
    ("Cc1ccc2c(=O)cc(CN(C)Cc3ccc(F)cc3)[nH]c2c1C", "Ubiquitin carboxyl-terminal hydrolase 30 (Homo sapiens)", "-7.81% (inactive)"),
    ("Cc1nnc(NCc2ccc(Cl)cc2)[nH]c1=O", "Ubiquitin carboxyl-terminal hydrolase 30 (Homo sapiens)", "26% (inactive)"),
    ("Cn1cc(-c2nc(C(=O)Nc3ccc(F)cc3)cs2)c2cccnc21", "Ubiquitin carboxyl-terminal hydrolase 30 (Homo sapiens)", "62.1% (active)"),
    ("CC1CCN(S(=O)(=O)N2CCCC(C(=O)Nc3cc(F)ccc3F)C2)CC1 (stereo not given)", "Ubiquitin carboxyl-terminal hydrolase 30 (Homo sapiens)", "18.2% (inactive)"),
    ("CN(CCc1ccccc1)c1nccc(N2CCN(C(=O)c3csc(-c4cccnc4)n3)CC2)n1", "Ubiquitin carboxyl-terminal hydrolase 30 (Homo sapiens)", "51.1% (active)"),
    ("COc1ccc(NC(=O)c2sc(N3CCOCC3)nc2-c2ccccc2)c(OC)c1", "Ubiquitin carboxyl-terminal hydrolase 30 (Homo sapiens)", "48.1% (active)"),
    ("N#Cc1ccc(-c2cccc(C(F)(F)F)c2)n(Cc2c(F)cccc2Cl)c1=O", "Ubiquitin carboxyl-terminal hydrolase 30 (Homo sapiens)", "17.6% (inactive)"),
    ("COC(=O)c1ccccc1NC(=O)Cn1cc(S(=O)(=O)Cc2ccc(C)cc2)c2ccccc21", "Ubiquitin carboxyl-terminal hydrolase 30 (Homo sapiens)", "-13.4% (inactive)"),
    ("CC(C)c1nc2oc3c(N4CCN(CCO)CC4)ncnc3c2c2c1CCC2", "Ubiquitin carboxyl-terminal hydrolase 30 (Homo sapiens)", "18.4% (inactive)"),
    ("CC(O)CNc1ncnc2c1oc1nc(C(C)C)c3c(c12)CCC3 (stereo not given)", "Ubiquitin carboxyl-terminal hydrolase 30 (Homo sapiens)", "38.1% (active)"),
    ("CCOC(=O)C1CCCN(c2cc3n(c(=O)n2)CCc2cc(OC)c(OC)cc2-3)C1 (stereo not given)", "Ubiquitin carboxyl-terminal hydrolase 30 (Homo sapiens)", "-59.6% (inactive)"),
    ("O=S(=O)(c1ccccc1)N1CCC(n2cnnc2-c2ccccc2)CC1", "Ubiquitin carboxyl-terminal hydrolase 30 (Homo sapiens)", "-0.303% (inactive)"),
    ("CCN(C(=O)c1nc(-c2cccc(F)c2)n2c1CCCCC2)c1ccccc1", "Ubiquitin carboxyl-terminal hydrolase 30 (Homo sapiens)", "-10.9% (inactive)"),
    ("c1ccc(Sc2nc(-c3ccccc3)nc3ccsc23)cc1", "Ubiquitin carboxyl-terminal hydrolase 30 (Homo sapiens)", "-19% (inactive)"),
    ("CC(C)Cc1cc(C(=O)N2CCN(C)CC(C(N)=O)C2)on1 (stereo not given)", "Ubiquitin carboxyl-terminal hydrolase 30 (Homo sapiens)", "16.9% (inactive)"),
    ("Cc1oc(-c2ccccc2)nc1C(=O)N(C)Cc1cccc(Cl)c1Cl", "Ubiquitin carboxyl-terminal hydrolase 30 (Homo sapiens)", "-7.53% (inactive)"),
    ("Cc1cc(-c2nnc(SCC(=O)Nc3ccc(Br)c(C)c3)n2N)n[nH]1", "Ubiquitin carboxyl-terminal hydrolase 30 (Homo sapiens)", "71.5% (active)"),
    ("CCCOc1ccc(C2Nc3ccccc3S(=O)(=O)N2Cc2ccccc2)cc1OCC (stereo not given)", "Ubiquitin carboxyl-terminal hydrolase 30 (Homo sapiens)", "11% (inactive)"),
    ("c1cc(CNCc2ccc3c(c2)OCO3)ccn1", "Ubiquitin carboxyl-terminal hydrolase 30 (Homo sapiens)", "0.888% (inactive)"),
    ("Cc1ccc(-c2cc(C(F)F)n3ncc(C(=O)NCC(C)C)c3n2)cc1", "Ubiquitin carboxyl-terminal hydrolase 30 (Homo sapiens)", "38.7% (active)"),
    ("O=C(Nc1cc(=O)[nH]c2nc(CCc3ccccc3)nn12)c1ccc(F)cc1", "Ubiquitin carboxyl-terminal hydrolase 30 (Homo sapiens)", "-74.9% (inactive)"),
    ("Cn1nc(C(=O)Nc2ccc(F)cc2)c(=O)c2ccccc21", "Ubiquitin carboxyl-terminal hydrolase 30 (Homo sapiens)", "-0.148% (inactive)"),
    ("Cc1ccc(CNC(=O)c2cnn3c4c(cnc23)C(=O)CCC4)cc1", "Ubiquitin carboxyl-terminal hydrolase 30 (Homo sapiens)", "-12.6% (inactive)"),
    ("c1ccc(-c2ccc(NCc3ccc4c(c3)OCO4)nn2)cc1", "Ubiquitin carboxyl-terminal hydrolase 30 (Homo sapiens)", "33.6% (active)"),
    ("CC(=O)CCC(=O)Nc1ccc(-c2nnc3n2CCCCC3)cc1", "Ubiquitin carboxyl-terminal hydrolase 30 (Homo sapiens)", "-1.55% (inactive)"),
    ("Cc1cccc2c1N(C(=O)Nc1ccc(OCc3ccccc3)cc1)CCC2", "Ubiquitin carboxyl-terminal hydrolase 30 (Homo sapiens)", "16.1% (inactive)"),
    ("CC(CNC(=O)c1csc(C(=O)N2CCCC2)n1)c1ccccc1 (stereo not given)", "Ubiquitin carboxyl-terminal hydrolase 30 (Homo sapiens)", "-12% (inactive)"),
    ("COc1ccc(-c2nc(N(Cc3ccccc3)C(=O)CN3CCOCC3)sc2C)cc1", "Ubiquitin carboxyl-terminal hydrolase 30 (Homo sapiens)", "-14.4% (inactive)"),
    ("O=C(Nc1ccccc1F)Nc1nnc2cccc(Cl)n12", "Ubiquitin carboxyl-terminal hydrolase 30 (Homo sapiens)", "-21.8% (inactive)"),
    ("CC(C)c1ccc(NC(=O)C[n+]2cc(-c3ccc(F)cc3)n3c2CCC3)cc1", "Ubiquitin carboxyl-terminal hydrolase 30 (Homo sapiens)", "41.8% (active)"),
]

* * *

SYSTEM: Ubiquitin carboxyl-terminal hydrolase 30 (Homo sapiens) (UniProt Q70CQ3)
Sequence (Q70CQ3 whole entry, looked up): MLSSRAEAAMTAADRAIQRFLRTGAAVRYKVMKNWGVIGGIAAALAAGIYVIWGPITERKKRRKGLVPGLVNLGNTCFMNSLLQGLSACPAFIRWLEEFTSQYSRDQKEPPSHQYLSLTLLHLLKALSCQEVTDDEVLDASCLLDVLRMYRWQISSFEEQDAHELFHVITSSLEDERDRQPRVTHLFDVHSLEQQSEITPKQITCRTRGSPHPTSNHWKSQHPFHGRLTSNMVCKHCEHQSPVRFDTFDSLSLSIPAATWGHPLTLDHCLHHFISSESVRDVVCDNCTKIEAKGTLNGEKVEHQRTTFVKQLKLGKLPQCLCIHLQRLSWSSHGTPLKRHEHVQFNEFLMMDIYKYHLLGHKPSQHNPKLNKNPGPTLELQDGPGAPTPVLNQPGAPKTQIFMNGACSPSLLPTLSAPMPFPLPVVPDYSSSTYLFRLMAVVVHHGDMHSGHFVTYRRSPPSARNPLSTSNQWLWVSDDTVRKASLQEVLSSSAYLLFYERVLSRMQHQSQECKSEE
EXPERIMENT NOTES: inhibitors of human USP30 deubiquitinase (AID 1645860)
EXPERIMENTAL CONTEXT: purified USP30, Ub-rhodamine cleavage fluorescence; at 25 µM; stronger effect = higher value
Among all 47,000 compounds or so, about 2,500 (5.3%) were called active. This excerpt belongs to a sample that is enriched for actives.
inhibition overview

# COMPOUND, RESULT UNIT, inhibition
measured = [
    ("COc1ccccc1Nc1nc(-c2cnc(N3CCCC3)nc2C)cc(=O)[nH]1", "%", 23.2),
    ("CC1(C)Cc2c(c(-c3ccco3)nc3sc4c(SCCCc5ccccc5)ncnc4c23)CO1", "%", 11.9),
    ("COc1ccc(CCNC(=O)c2ccc3ccccc3c2)cc1OC", "%", -12.8),
    ("CCc1ccc(-n2nnc(C(=O)Nc3nnc(CC)s3)c2C)cc1", "%", 30.5),
    ("COCCn1cnc2c(-c3ccccc3)cn(CC(=O)NCc3ccccc3)c2c1=O", "%", -28.3),
    ("CCc1nnc(NC(=O)c2cc(-c3ccc(C)c(C)c3O)n[nH]2)s1", "%", 17.9),
    ("COCCn1cnc2c(-c3ccccc3)cn(CC(=O)NCc3ccc(F)cc3)c2c1=O", "%", -1.66),
    ("CC(C)C(=O)Nc1nc2cc(NS(=O)(=O)c3ccccc3)ccc2s1", "%", 36.4),
    ("O=C(Nc1ccc(C(F)(F)F)cc1)N1CCc2[nH]cnc2C1c1ccncc1 (stereo not drawn)", "%", 13),
    ("Cc1cccc(NC(=O)Cn2c(C)ccc(NC(=O)Nc3cccc(C)c3)c2=O)c1", "%", 34.8),
    ("CC(C)C(=O)Nc1nc2ccc(CCC(=O)Nc3ccc(F)cc3)cc2s1", "%", 26.5),
    ("CCCN1CCN(Cc2nc(-c3ccc(N4CCCCCC4)nc3)no2)CC1", "%", -26.8),
    ("O=c1[nH]c2c(-c3ccccn3)nsc2c(=O)n1Cc1cccnc1", "%", 2.65),
    ("Cc1cc2c(cc1S(=O)(=O)N1CCC(C(=O)N(C)Cc3ccco3)CC1)OCC(=O)N2", "%", 26.1),
    ("COc1ccccc1CCNC(=O)c1cccc(N2C(=O)C(C)(C)CS2(=O)=O)c1", "%", -7.58),
    ("Cc1cc(=O)c2c(O)cccc2o1", "%", -221),
    ("O=C(OCC(=O)N1CCc2ccccc21)c1cccc([N+](=O)[O-])c1", "%", -2.1),
    ("COc1cccc(NC(=O)C(C#N)C(=O)C2CC2c2cccc(C)c2)c1 (stereo not drawn)", "%", 31.3),
    ("O=C1C(O)=C(c2ccc(O)c(O)c2)C(=O)C(O)=C1c1ccccc1", "%", 50.5),
    ("O=C(CN1CCCC1c1ccc2c(c1)OCCCO2)NCCc1ccccc1F (stereo not drawn)", "%", -52),
    ("O=C(Cn1c(=O)n(Cc2ccc3c(c2)OCO3)c(=O)c2ccccc21)NCc1ccco1", "%", 33),
    ("CC(C)N(C(=O)CSc1nc2ccc([N+](=O)[O-])cc2s1)C(C)C", "%", -147),
    ("COc1cccc(NC(=O)N2CC[C@H]3N(C)CC[C@@]3(C(=O)N3CCCC3)CC2)c1", "%", -23.3),
    ("CCOc1ccccc1-c1nc(-c2nnn(Cc3ccccc3)c2C)no1", "%", 51.6),
    ("COc1ccc(N2CCN(Cc3cc(=O)oc4cc(O)ccc34)CC2)cc1", "%", 8.3),
    ("CNc1nc(C2CCCN(C(=O)C3CCCCC3)C2)nc2c1CNCC2 (stereo not drawn)", "%", -11.2),
    ("CC(=O)N1CCn2c(nnc2C2CCCN2)C1 (stereo not drawn)", "%", 12.2),
    ("CCCc1cc(=O)oc2cc(OCC(=O)NCc3ccc(OC)cc3)ccc12", "%", 62.1),
    ("O=C(Cn1c(=O)n(Cc2ccc3c(c2)OCO3)c(=O)c2cccnc21)Nc1ccc(F)cc1", "%", 21.5),
    ("Cc1ccc(F)cc1NC(=O)CN(C)Cc1ccc2c(c1)OCO2", "%", -0.987),
    ("O=C(NCCc1ccccc1)c1ccc2c(=O)nc3c(-c4ccccc4F)n[nH]n3c2c1", "%", -10.3),
    ("CC(C)Cc1nc2sc3c(N(CCO)Cc4ccccc4)ncnc3c2c2c1COC(C)(C)C2", "%", 34.9),
    ("CCN1CCCCC12Cc1ccccc1CN(S(C)(=O)=O)C2 (stereo not drawn)", "%", 1.88),
    ("COc1ccc(C(NC(=O)CN(C)Cc2ccc3c(c2)OCO3)c2ccccc2)cc1 (stereo not drawn)", "%", 42),
    ("O=C(NCC(c1ccco1)N1CCCCC1)c1ccccc1Cl (stereo not drawn)", "%", -6.05),
    ("Cc1cc2oc(C(=O)Nc3ccc4c(c3)NC(=O)CO4)c(C)c2cc1Cl", "%", 19.5),
    ("COc1cn(CC(=O)Nc2cccc(C)c2)c(CSc2ccc(C)cc2)cc1=O", "%", -0.0406),
    ("CNC(=O)N1CCC(n2c(C)nc(C(=O)Nc3cccc(OC)c3)c2C)CC1", "%", 2.54),
    ("CC12C(=O)N(CCCN3CCOCC3)CC(=O)N1CCc1c2[nH]c2ccccc12 (stereo not drawn)", "%", 7.84),
    ("COc1ccc(NC(=O)CSc2cn(Cc3ccccc3C)c3ccccc23)c(OC)c1", "%", 8.78),
    ("COCCN1C(=O)Cc2c(C)nc(C3(C)CCCN(c4cc(C)ncn4)C3)nc21 (stereo not drawn)", "%", -104),
    ("CC(C)(C)C(=O)Cn1c(=O)n(Cc2ccco2)c(=O)c2ccccc21", "%", 1.71),
    ("Cc1ccc(C(C)C(=O)N2CCC(c3nc4ccccc4cc3C(N)=O)CC2)cc1 (stereo not drawn)", "%", -3.47),
]
